test system: UO-31 renal; experiment: NCI-60 one-dose screen, 48 h (100 = growth as untreated, 0 = no growth, -100 = all killed); conditions: 10 µM
Compounds without any hit were thinned out: in the full panel of roughly 83,000, 20% have a hit.
METRIC: growth (%)
Numbers only, in %.

Some compounds with recorded growth:
COMPOUND | OBSERVED
COc1ccc(/C=C/C(=O)c2ccc(NC(=O)CN3C(=O)NC(C)(c4ccccc4)C3=O)cc2)cc1 (stereo not drawn) | 56.8
COC1CC(Cn2cc(COc3ccc4ccc(=O)oc4c3)nn2)C(OCc2ccccc2)C(OCc2ccccc2)C1OCc1ccccc1 (stereo not drawn) | 71.7

Please give growth for each item listed below.
1. COC(=O)c1c(C(=O)OC)c2n(c1C)[C@@H]([C@@H](C)[C@H]1CC[C@H]3[C@@H]4CCC5=CC(=O)CC[C@]5(C)[C@H]4CC[C@]13C)SC2
2. O/N=C(\CSc1nnc(-c2c[nH]c3ccccc23)n1-c1ccccc1)c1ccc(Cl)cc1
3. CC(=O)NS(=O)(=O)c1ccc(NC(=O)CSC2=NC(c3ccccc3)C(C(C)=O)=C(C)N2)cc1 (stereo not drawn)
4. Cc1ccc(-c2cc(C(=O)N=Nc3c(O)[nH]c4ccccc34)c3ccccc3n2)cc1
5. O=C(c1ccc(O)cc1)C1[C@H](c2ccccc2Br)[C@@H](c2ccccc2)NC12C(=O)Nc1ccc(Cl)cc12 (stereo partly drawn)

1. 30.1
2. 34.4
3. 91.5
4. 51.6
5. 13.6

Please give growth for each item listed below.
1. Cc1ccc(-c2ccc(SCC(=O)Nc3ccc(S(N)(=O)=O)cc3Br)nn2)cc1
2. O=C(Cc1ccc2c(c1)CN(C1CCC(=O)NC1=O)C2=O)NCCc1ccccc1 (stereo not drawn)
3. CN(C)CCNC(=O)OCCCCOc1cc(O)c2c(=O)cc(-c3ccccc3)oc2c1
4. COc1cc2c3c(n(CCCN4CCOCC4)c(=O)c2cc1OC)-c1nc2c(cc1C3=O)OCO2
5. C/C(=C\CSc1ccccc1C(=O)O)CCCC(C)CCCC(C)CCCC(C)C (stereo not drawn)
6. O=C1Nc2ccc(F)cc2/C1=C/c1cccc(OCc2ccccn2)c1
7. COc1ccc(OC)c(-c2cc(-c3c[nH]c4ccccc34)nc(N)c2C#N)c1

70.6
-10.4
-91.2
15.3
49.5
34
-15.5

Please give growth for each item listed below.
1. O=C(Cn1cc(CSc2nnc3oc4ccccc4n23)nn1)Nc1ccc(Br)cc1
2. COc1cccc(/C=C2\N=C(C)N(CCc3ccc(S(N)(=O)=O)cc3)C2=O)c1
3. O=c1oc2ccc(-c3ccc(F)cc3F)cc2c(=O)n1-c1ccc(Cl)c(C(F)(F)F)c1
4. CCOc1ccc(/C=N/NC(=O)Cn2nc(Cc3ccc([N+](=O)[O-])cc3)c3onc(C)c3c2=O)cc1

1. 74.2
2. 90.9
3. -3.08
4. -48.1
